System: FB
Test: Euclidean distance of Cell Painting phenotypic profile (signed KS, 77 features) to DMSO centroid (dimensionless distance); 5 or 10 uM (library dependent); higher = stronger phenotypic change vs DMSO (phenoactivity)
Conditions: 48 h
Structures can show the parent of a compound that is named as a salt.
Note to self: values exactly at 2 are rule met. So Euclidean distance at or above 2 is rule met, below is rule not met.

// known answers, use as guide
compound	class.assignment
CCOc1ccc(Cc2cc([C@@H]3O[C@H](CO)[C@@H](O)[C@H](O)[C@H]3O)ccc2Cl)cc1 [Dapagliflozin propanediol monohydrate]	rule not met
CC1(COc2ccc3c(c2)ncn3-c2ccc3cccc(N4CCC(N)CC4)c3n2)COC1	rule met
O=C(O)CCCC[C@@H]1SC[C@@H]2NC(=O)N[C@@H]21	rule not met
COc1cccc2c1C(=O)c1c(O)c3c(c(O)c1C2=O)C[C@@](O)(C(=O)CO)C[C@@H]3O[C@H]1C[C@H](N)[C@H](O)[C@H](C)O1	rule met
Cc1cccc(CN2CCN(C(c3ccccc3)c3ccc(Cl)cc3)CC2)c1 (configuration not stated) [Meclizine 2HCl]	rule not met

I'd appreciate it if you could say whether O=C(/C=C\n1cnc(-c2cc(C(F)(F)F)cc(C(F)(F)F)c2)n1)N1CC(F)(F)C1 has Euclidean distance at least equal to 2. rule met

I'd appreciate it if you could say whether CC(C)n1nc(-c2ccc3oc(N)nc3c2)c2c(N)ncnc21 has Euclidean distance at least equal to 2. rule met

I'd appreciate it if you could say whether O=C(Nc1cccnn1)N1CCC(=Cc2cccc(Oc3ccc(C(F)(F)F)cn3)c2)CC1 has Euclidean distance at least equal to 2. rule not met

I'd appreciate it if you could say whether CCCN[C@H]1CCc2nc(N)sc2C1 [Pramipexole dihydrochloride] has Euclidean distance at least equal to 2. rule not met

---

Reported Euclidean distance values for a set of compounds
System: FB
Experiment: Euclidean distance of Cell Painting phenotypic profile (signed KS, 77 features) to DMSO centroid (dimensionless distance); 5 or 10 uM (library dependent); higher = stronger phenotypic change vs DMSO (phenoactivity)
Settings: 48 h
Please give only the number in your answer, with no unit.

Euclidean distance in this record for CC(C)c1onc(-c2c(Cl)cccc2Cl)c1COc1ccc(/C=C/c2cccc(C(=O)O)c2)c(Cl)c1 : 1.26

Euclidean distance in this record for CO/N=C(\C(=O)N[C@@H]1C(=O)N2C(C(=O)OCOC(=O)C(C)(C)C)=C(/C=C\c3scnc3C)CS[C@H]12)c1csc(N)n1 [Cefditoren Pivoxil] : 1.03

Euclidean distance in this record for CCNC(=O)[C@@H]1CCCN1C(=O)[C@H](CCCN=C(N)N)NC(=O)[C@H](CC(C)C)NC(=O)[C@@H](C)NC(=O)[C@H](Cc1ccc(O)cc1)NC(=O)[C@H](CO)NC(=O)[C@H](Cc1c[nH]c2ccccc12)NC(=O)[C@H](Cc1cnc[nH]1)NC(=O)[C@@H]1CCC(=O)N1 [Alarelin Acetate] : 2.05

Euclidean distance in this record for O=c1c(O)c(-c2ccc(O)cc2)oc2cc(O)cc(O)c12 [Kaempferol] : 1.36

Euclidean distance in this record for O=C1CN(/N=C/c2ccc(-c3ccc([N+](=O)[O-])cc3)o2)C(=O)N1 [Dantrolene sodium] : 0.968

Euclidean distance in this record for CC(=O)NS(=O)(=O)c1ccc(N)cc1 [Sulfacetamide Sodium] : 0.694
